# assay.system: HCN3 (Homo sapiens)
# Sequence (Q9P1Z3 1-774): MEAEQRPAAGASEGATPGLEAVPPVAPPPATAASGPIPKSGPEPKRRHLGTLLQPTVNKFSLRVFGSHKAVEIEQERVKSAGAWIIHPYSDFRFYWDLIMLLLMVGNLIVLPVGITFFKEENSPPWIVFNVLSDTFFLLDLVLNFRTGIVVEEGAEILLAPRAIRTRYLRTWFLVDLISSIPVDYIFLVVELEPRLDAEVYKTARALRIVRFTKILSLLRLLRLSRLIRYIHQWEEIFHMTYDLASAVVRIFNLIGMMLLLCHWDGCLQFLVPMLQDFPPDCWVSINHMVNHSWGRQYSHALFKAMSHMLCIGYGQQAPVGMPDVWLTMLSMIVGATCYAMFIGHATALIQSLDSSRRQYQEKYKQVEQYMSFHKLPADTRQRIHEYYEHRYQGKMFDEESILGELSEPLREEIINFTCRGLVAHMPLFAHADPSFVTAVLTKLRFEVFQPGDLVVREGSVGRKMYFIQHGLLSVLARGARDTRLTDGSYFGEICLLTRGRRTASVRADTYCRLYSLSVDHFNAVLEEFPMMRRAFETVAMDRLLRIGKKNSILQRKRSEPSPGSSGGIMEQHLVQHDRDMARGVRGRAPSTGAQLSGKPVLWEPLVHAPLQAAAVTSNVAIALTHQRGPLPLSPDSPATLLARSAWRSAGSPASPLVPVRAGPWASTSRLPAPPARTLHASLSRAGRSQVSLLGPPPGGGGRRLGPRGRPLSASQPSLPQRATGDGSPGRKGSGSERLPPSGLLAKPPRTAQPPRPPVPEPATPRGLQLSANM
# method.description: HCN3 automated patch clamp current inhibition assay (Ionworks Barracuda)
# condition.summary: HEK-293 cells stably expressing HCN3; current inhibition during a hyperpolarizing pulse of -100 mV
pIC50: −log10 of the molar value.
observation.type: pIC50

[
  {
    "molecule": "Cc1c(C#Cc2ccnc(Cl)c2)nc(C(N)=O)n1-c1ccc(Cl)cc1 [Example 39]",
    "result": "< 4.40"
  },
  {
    "molecule": "Cc1cnc(-n2c(C(N)=O)nc(C#Cc3ccnc(Cl)c3C)c2C)cn1 [Example 23]",
    "result": 5.62
  },
  {
    "molecule": "Cc1ccc(-c2c(C(N)=O)nc(C#Cc3ccnc(Cl)c3)n2C)cn1 [Example 32]",
    "result": "< 4.40"
  },
  {
    "molecule": "Cc1ccc(-n2c(C(N)=O)nc(C#Cc3cccc(C#N)c3)c2C)cn1 [Example 5]",
    "result": "< 4.40"
  },
  {
    "molecule": "COc1ccc(-n2c(C(N)=O)nc(C#Cc3ccnc(Cl)c3C)c2C)cn1 [Example 27]",
    "result": 4.42
  }
]

## Input Give reported pIC50 value for Cc1ccc(-c2c(C(N)=O)nc(C#Cc3cccc(Cl)c3C)n2C)cn1 [Example 44]
## Output < 4.40

## Input Give reported pIC50 value for Cc1ccc(-n2c(C(N)=O)nc(C#Cc3ccnc(Cl)c3C)c2C)cn1 [Example 1]
## Output < 4.40

## Input Give reported pIC50 value for COc1cccc(C#Cc2nc(C(N)=O)n(-c3ccc(C)nc3)c2C)c1 [Example 8]
## Output 4.44

## Input Give reported pIC50 value for Cc1ccc(-n2c(C(N)=O)nc(C#Cc3ccnc(Cl)c3C)c2C)nc1 [Example 28]
## Output < 4.40

## Input Give reported pIC50 value for Cc1ccc(-n2c(C(N)=O)nc(C#Cc3cc(Cl)ccn3)c2C)cn1 [Example 18]
## Output < 4.40
